system: SK-MEL-28; assay: Cytotoxicity against human SK-MEL-28 cells assessed as cell growth at 1 uM after 48 hrs by sulforhodamine B assay; assay type: functional; conditions: SK-MEL-28, 48 h, read-out: Activity
QUANTITY: growth at 1 µM (%)
Note: unit % is implicit; provide only the numeric part.

COc1cc(C)cc(-c2c(-c3ccnc(-c4ccc(C(C)=O)cc4)c3)cnn2CC#N)c1 :: 44
COc1cc(C)cc(-c2nn(CC#N)cc2-c2ccc(-c3cccc(C(C)=O)c3)nc2)c1 :: 31
COc1cc(C)cc(-c2nn(CC#N)cc2-c2ccnc(-c3ccc(N(C)C)cc3)c2)c1 :: 45
Cc1cc(O)cc(-c2nn(CC#N)cc2-c2ccnc(-c3ccc(N(C)C)cc3)c2)c1 :: 32

Alright, here's another compound for you.
Problem: Give growth at 1 µM for `Cc1cc(O)cc(-c2nn(CC#N)cc2-c2ccnc(-c3ccc(Oc4ccccc4)cc3)c2)c1`
Solution: 30

* * *

test system: DU-145; assay: Cytotoxicity against human DU145 cells assessed as cell growth at 10 uM; assay type: functional; conditions: read-out: Activity
The following molecules are shown together with reported growth at 10 µM values.
Note: unit % is implicit; provide only the numeric part.

Problem: Give growth at 10 µM for `COc1cc(C)cc(-c2nn(CC#N)cc2-c2ccc(-c3cccc(C(C)=O)c3)nc2)c1`
Solution: 39

Problem: Give growth at 10 µM for `Cc1cc(O)cc(-c2nn(CC#N)cc2-c2ccnc(-c3ccc(N(C)C)cc3)c2)c1`
Solution: 80.3

Problem: Give growth at 10 µM for `Cc1cc(O)cc(-c2nn(CC#N)cc2-c2ccnc(-c3ccc(C#N)cc3)c2)c1`
Solution: 96.3

Problem: Give growth at 10 µM for `COc1cc(C)cc(-c2nn(CC#N)cc2-c2ccnc(-c3ccc(C(C)=O)cc3)c2)c1`
Solution: 113

Problem: Give growth at 10 µM for `COc1cc(C)cc(-c2nn(CC#N)cc2-c2ccnc(-c3ccc(Oc4ccccc4)cc3)c2)c1`
Solution: 105

Problem: Give growth at 10 µM for `Cc1cc(O)cc(-c2nn(CC#N)cc2-c2ccnc(-c3ccc(Oc4ccccc4)cc3)c2)c1`
Solution: 76.7

Problem: Give growth at 10 µM for `COc1cc(C)cc(-c2c(-c3ccnc(-c4ccc(C(C)=O)cc4)c3)cnn2CC#N)c1`
Solution: 103

Problem: Give growth at 10 µM for `COc1cc(C)cc(-c2nn(CC#N)cc2-c2ccnc(-c3ccc(N(C)C)cc3)c2)c1`
Solution: 2.87

Problem: Give growth at 10 µM for `Cc1cc(O)cc(-c2nn(CC#N)cc2-c2ccnc(-c3ccccc3)c2)c1`
Solution: 103

Problem: Give growth at 10 µM for `COc1cc(C)cc(-c2nn(CC#N)cc2-c2ccnc(-c3cccc(NC(C)=O)c3)c2)c1`
Solution: 105

Problem: Give growth at 10 µM for `COc1cc(C)cc(-c2c(-c3ccnc(-c4cccc(NC(C)=O)c4)c3)cnn2CC#N)c1`
Solution: 105

Problem: Give growth at 10 µM for `COc1cc(C)cc(-c2c(-c3ccnc(-c4ccc(N(C)C)cc4)c3)cnn2CC#N)c1`
Solution: 3.17

Problem: Give growth at 10 µM for `COc1cc(C)cc(-c2nn(CC#N)cc2-c2ccnc(-c3ccc(C#N)cc3)c2)c1`
Solution: 109

The reported measurements were obtained from ChEMBL document CHEMBL1165950.
